Attribution: patent US20240025919A1

Parameter: IC50. Scope: all listed entries.
Molecular target: KRAS G12D (Homo sapiens (Human), UniProt P01116, G12D)
Sequence (P01116-2 other isoform, or with tags, fused parts or gaps G12D): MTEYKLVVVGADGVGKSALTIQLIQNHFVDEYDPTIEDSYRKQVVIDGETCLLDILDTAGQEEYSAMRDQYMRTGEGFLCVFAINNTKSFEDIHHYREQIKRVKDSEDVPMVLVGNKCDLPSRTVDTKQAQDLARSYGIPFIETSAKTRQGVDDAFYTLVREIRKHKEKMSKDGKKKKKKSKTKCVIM
Assay: KRAS G12D LoEnz Biochemical Assay, BODIPY-GDP Exchange TR-FRET (SOS1-mediated nucleotide exchange)
Details: read-out: KRas (G12D) GDP HTRF IC50
Quick note: give the figure in nM, leave out the unit.

stdin: Which value of IC50 has been reported for Cc1nc(N)cc(-c2nc3c4c(nc(OC[C@H]5N(C)C[C@]56CC6(F)F)nc4c2F)N2C[C@H]4CC[C@H](N4)[C@H]2[C@H](C(F)(F)F)O3)c1C(F)(F)F (single isomer, unassigned) [262 (isomer 1)] in the records?
stdout: 31.9

stdin: # input molecule: Cc1c(F)c(N)cc(-c2nc3c4c(nc(OC[C@]56CCC[C@H]5N(C)CCC6)nc4c2F)N2C[C@H]4CC[C@H](N4)[C@H]2[C@H](C)O3)c1C(F)(F)F (single isomer, unassigned) [126 (isomer 4)] ; wanted: its IC50
stdout: 0.37

stdin: Could you share which IC50 value was measured for Cc1c(F)c(N)cc(-c2nc3c4c(nc(OC[C@@]5(CC(F)F)CCCN5C)nc4c2F)N2C[C@H]4CC[C@H](N4)[C@H]2[C@H](C)O3)c1C(F)(F)F (single isomer, unassigned) [150 (isomer 1)] ?
stdout: 0.18

stdin: Name the reported IC50 value associated with the molecule Cc1c(F)c(N)nc(-c2nc3c4c(nc(OC[C@@]56CCCN5C[C@H](F)C6)nc4c2F)N2C[C@H]4CC[C@H](N4)[C@H]2[C@H](C)O3)c1C(F)(F)F
stdout: 0.46

stdin: Which measured IC50 value corresponds to Cc1nc(N)cc(-c2nc3c4c(nc(OCC5(CN6CCO[C@H](C)C6)CC5)nc4c2F)N2C[C@H]4CC[C@H](N4)[C@H]2[C@H](C)O3)c1C(F)(F)F ?
stdout: 0.31

====

Below, each entry is listed alongside its reported pIC50.
Target: KRAS G12D (Homo sapiens (Human), UniProt P01116, G12D)
Assay: KRAS G12D LoEnz Biochemical Assay, BODIPY-GDP Exchange TR-FRET (SOS1-mediated nucleotide exchange)
Settings: read-out: KRas (G12D) GDP HTRF IC50
pIC50 here is simply -log10 of the concentration when that concentration is written in mol/L.

Example entries and their recorded answers appear below.
{"compound": "C[C@@H]1Oc2nc(-c3cc(N)nc4ccccc34)c(F)c3nc(OC[C@]45CCN4CC(F)(F)C5)nc(c23)N2C[C@H]3CC[C@H](N3)[C@@H]12", "pIC50": 7.64}
{"compound": "Cc1c(F)c(N)cc(-c2nc3c4c(nc(OC[C@@H]5CC[C@@H]6CC(C(=O)N(C)C)CCN65)nc4c2F)N2C[C@H]4CC[C@H](N4)[C@H]2[C@H](C)O3)c1C(F)(F)F (single isomer, unassigned) [133 (isomer 3)]", "pIC50": 9.85}
{"compound": "C[C@@H]1Oc2nc(-c3cc(N)cc4c3CC4)c(F)c3nc(OC[C@@]45CCCN4C[C@H](F)C5)nc(c23)N2C[C@H]3CC[C@H](N3)[C@@H]12", "pIC50": 8.04}
{"compound": "Cc1c(F)c(N)cc(-c2nc3c4c(nc(OC[C@H]5[C@@H](O)CCN5C)nc4c2F)N2C[C@H]4CC[C@H](N4)[C@H]2[C@H](C)O3)c1C(F)(F)F", "pIC50": 9.89}
{"compound": "Cc1nc(N)cc(-c2nc3c4c(nc(OC[C@@H]5CC[C@H]6COCCN65)nc4c2F)N2C[C@H]4CC[C@H](N4)[C@H]2[C@H](C(F)(F)F)O3)c1C(F)(F)F", "pIC50": 8.99}

stdin: Which pIC50 value is on record for CC(c1cc(F)c(N)cc1-c1nc2c3c(nc(OC[C@@]45CCCN4C[C@H](F)C5)nc3c1F)N1C[C@H]3CC[C@H](N3)[C@H]1[C@H](C)O2)C(F)F (single isomer, unassigned) [181 (isomer 2)] ?
stdout: 7.30

stdin: Which pIC50 value belongs to Cc1c(F)c(N)cc(-c2nc3c4c(nc(OC[C@@]56CCCN5C[C@H](F)C6)nc4c2F)N2C[C@H]4CC[C@H](N4)[C@@H]2C(C)O3)c1C(F)(F)F (single isomer, unassigned) [237 (isomer 2)] ?
stdout: 9.82
